Heads up, these compounds all have Ki values measured for Sodium-dependent serotonin transporter (Homo sapiens, UniProt P31645, S438T).

Sample answers from the record:
- Compound smiles: "CN(CCC[C@@]1(c2ccc(F)cc2)OCc2cc(C#N)ccc21)CCc1ccc(N=[N+]=[N-])c(I)c1"
  Ki: "3.81 µM"
- Compound smiles: "CN(C)CCC[C@@]1(c2ccc(F)cc2)OCc2cc(CNC(=O)c3ccc(N=[N+]=[N-])c(I)c3)ccc21"
  Ki: "5.7 µM"

# evaluate next
### Prompt Consider the compound shown here: CN(C)CCC[C@@]1(c2ccc(F)cc2)OCc2cc(CNC(=O)CCc3ccc(N=[N+]=[N-])c(I)c3)ccc21 What is its recorded Ki?
### Response 9.88 µM
